biological target: central benzodiazepine receptor (CBR); assay: CBR binding assay, displacement of [3H]flunitrazepam in rat brain (cerebral cortex) lysate; conditions: rat brain lysate / cerebral cortex membranes; selectivity for TSPO over CBR; read-out: Ki versus [3H]flunitrazepam
endpoint: Ki

Query: Look at this compound and give its reported Ki. CN(C)C(=O)Cc1nn(-c2cccc(F)n2)c(=O)c2c1c1ccc(Cl)cc1n2C [Compound 14]
Reply: > 10 µM

----------
Can you tell me pKi for the items I'm about to list?
biological target: TSPO (Rattus norvegicus, UniProt P16257); assay: TSPO radiometric binding assay, heart lysate, displacement of [3H]PK11195
Answers are plain numbers, as −log10 of the molar value.

CN(C)C(=O)Cc1nn(-c2cccc([N+](=O)[O-])c2)c(=O)c2c1c1ccc(Cl)cc1n2C	11.93

Here is another molecule to look at.
Query: Look at this molecule and give its reported pKi. "CN(C)C(=O)Cc1nn(-c2ccccn2)c(=O)c2c1c1ccc(Cl)cc1n2C"
Reply: 8.31

----------
target: TSPO (Rattus norvegicus, UniProt P16257); test: Binding affinity to TSPO of fluorescent probes
Can you tell me pKi for the items I'm about to list?
One number for each entry, as −log10 of the molar value.

Below: 2 compounds and their reported pKi.
CCc1cc(CC)n2nc(-c3ccc(OCCNC(=S)Nc4ccc5c(c4)C(=O)OC54c5ccc(O)cc5Oc5cc(O)ccc54)cc3)c(CC(=O)N(CC)CC)c2n1	7.86
CCc1cc(CC)n2nc(-c3ccc(OCCCCCNC(=S)Nc4ccc5c(c4)C(=O)OC54c5ccc(O)cc5Oc5cc(O)ccc54)cc3)c(CC(=O)N(CC)CC)c2n1	6.73

Here is another compound to look at.
Query: Look at this compound and give its reported pKi. "CCc1cc(CC)n2nc(-c3ccc(OCCCCCCNC(=S)Nc4ccc5c(c4)C(=O)OC54c5ccc(O)cc5Oc5cc(O)ccc54)cc3)c(CC(=O)N(CC)CC)c2n1"
Reply: 7.93
